test: Human pharmacokinetics, healthy subjects, 7.5-hour continuous ascending dose IV infusion; type: in vivo; details: human, in vivo, healthy subjects, infusion rate 18/36/72 ng/kg/min, N = 1; read-out: CL (converted)
valueType: clearance (mL/min/kg)
Answer with a number only, understood to be in mL/min/kg.

Give reported clearance value for H-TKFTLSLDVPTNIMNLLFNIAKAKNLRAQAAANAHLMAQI-NH2 [SEQ ID NO: 1]
4.67

* * *

target: human CRHR2 (Homo sapiens); construct: expressed in transfected cells; assay: cAMP assay, h-CRHR2 transfected SK-N-MC cells; assay type: cell-based; settings: Table 13; h-SCP control pA50 minus test compound pA50 within the same assay batch
Sequence (Q13324 whole entry): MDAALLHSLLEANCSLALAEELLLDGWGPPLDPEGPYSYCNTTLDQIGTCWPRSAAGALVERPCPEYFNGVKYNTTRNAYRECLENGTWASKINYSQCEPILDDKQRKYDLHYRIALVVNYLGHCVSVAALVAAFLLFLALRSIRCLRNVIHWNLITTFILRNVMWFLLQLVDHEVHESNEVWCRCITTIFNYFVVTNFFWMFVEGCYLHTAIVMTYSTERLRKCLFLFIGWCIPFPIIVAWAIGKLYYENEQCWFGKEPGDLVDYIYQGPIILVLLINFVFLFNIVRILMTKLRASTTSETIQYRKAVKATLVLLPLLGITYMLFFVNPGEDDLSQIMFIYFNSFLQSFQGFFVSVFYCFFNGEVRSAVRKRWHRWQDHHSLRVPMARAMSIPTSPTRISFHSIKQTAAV
Where no end group is shown, it is not given here.
valueType: Log DR [M]
Enter a number only.

H-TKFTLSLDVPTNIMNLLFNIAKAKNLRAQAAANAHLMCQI-NH2 [SEQ ID NO: 39]
0.41

Please turn your attention to the following entry.
Output Log DR [M] of TKFCLSLDVPTNIMNLLFNIAKAKNLRAQAAANAHLMAQI-NH2 [SEQ ID NO: 5]
0.76
